Target System: T1, biotin-peptide YVNFNFTDFY (human)
T1 peptide: Biotin-YVNFNFTDFY
Test Protocol: ELISA biotin-peptide; scFv 10 ug/mL; repII
Where no end group is shown, it is not given here. The star is where a group is joined. Biotin = O=C1N[C@H]2[C@H](CS[C@H]2CCCCC(=O)*)N1
Measurement Kind: OD450 (OD)
Please reply with the bare figure in OD and do not write the unit itself.

Request: Write down OD450 measured for item CCR9_HUM2 scFv (humanized anti-CCR9 scFv, SEQ ID NO: 17 with C-terminal 6xHis tag) (scFv) scFv: QVQLVQSGAEVKKPGASVKVSCTASGYSFTDYIIYWVKQAHGQSLEWMGYIDPNNYNTRYSQKFQGKVTITVDKSSTSAYMELNSLTSDDTAVYYCARDVYWGQGTTVTVSSGGGGSGGGGSGGGGSGGGGSDVVMTQTPLSLSVTPGQPASISCRSSQSLVHSNGKTYLQWYLQKPGQSPKLLIYKVSNRFSGVPDRFSGSGSGTDFTLKISRVEAEDVGVYFCAQSTHVWTFGGGTKVEIKRAHHHHHH
Response: 0.21
